Data origin: patent US20220213060A1

Experiment: Beagle dog absorption test (pharmacokinetics)
Assay type: in vivo, Beagle dogs
Conditions: male and female beagle dogs, oral, 1 mg/kg, 1 day after the administration
VALUE TYPE: AUC0-last (µM·h)

INSERT INTO assay_data (sample_smiles, display_unit, measurement) VALUES
  ('CNC(=O)[C@H](C)Cn1cnc2ccc(-c3cnc(OC)c(NS(=O)(=O)c4ccc(F)cc4F)c3)cc2c1=O', 'µM·h', 4.98);

###

Assay: Sprague Dawley (SD) rat absorption test (pharmacokinetics)
Format: in vivo, SD rats
Conditions: male, Sprague-Dawley, rat, plasma, po, 10 mg/kg, male SD rats, oral, 10 mg/kg, Day 1
Method: SD rats were given the crystal form A of the compound represented by formula (I) by single or multiple oral gavage and single intravenous injection respectively, with 6 rats in each group, half male and half female. […] According to the drug plasma concentration-time curve, the pharmacokinetic parameters were calculated. […]
VALUE TYPE: half-life (h)

INSERT INTO assay_data (sample_smiles, value_type, display_unit, measurement) VALUES
  ('CNC(=O)[C@H](C)Cn1cnc2ccc(-c3cnc(OC)c(NS(=O)(=O)c4ccc(F)cc4F)c3)cc2c1=O', 'half-life', 'h', 2.49);

###

Assay: Sprague Dawley (SD) rat absorption test (pharmacokinetics)
Assay type: in vivo, SD rats
Details: Sprague-Dawley, rat, plasma; male SD rats, oral, 10 mg/kg once a day, Day 7
VALUE TYPE: Tmax at 7 days

INSERT INTO results (sample_smiles, value_type, measurement) VALUES
  ('CNC(=O)[C@H](C)Cn1cnc2ccc(-c3cnc(OC)c(NS(=O)(=O)c4ccc(F)cc4F)c3)cc2c1=O', 'Tmax at 7 days', '40 min');

###

Test: Sprague Dawley (SD) rat absorption test (pharmacokinetics)
Assay type: in vivo, SD rats
Conditions: male, Sprague-Dawley, rat, plasma, po, 3 mg/kg, male SD rats, single
VALUE TYPE: Cmax (µM)

INSERT INTO results (sample_smiles, measurement) VALUES
  ('CNC(=O)[C@H](C)Cn1cnc2ccc(-c3cnc(OC)c(NS(=O)(=O)c4ccc(F)cc4F)c3)cc2c1=O', 4.77);

###

Assay: Sprague Dawley (SD) rat absorption test (pharmacokinetics)
Type: in vivo, SD rats
Conditions: male, Sprague-Dawley, rat, plasma, iv, 1 mg/kg, male SD rats, vein, 1 mg/kg, single; read-out: Vdss
VALUE TYPE: Vd (L/kg)

INSERT INTO assay_data (sample_smiles, measurement) VALUES
  ('CNC(=O)[C@H](C)Cn1cnc2ccc(-c3cnc(OC)c(NS(=O)(=O)c4ccc(F)cc4F)c3)cc2c1=O', 0.265);

###

Test: Sprague Dawley (SD) rat absorption test (pharmacokinetics)
Assay type: in vivo, SD rats
Conditions: Sprague-Dawley, rat, plasma, iv; female SD rats, vein, 1 mg/kg, single
VALUE TYPE: C0 (µM)

INSERT INTO assay_data (sample_smiles, value_type, display_unit, measurement) VALUES
  ('CNC(=O)[C@H](C)Cn1cnc2ccc(-c3cnc(OC)c(NS(=O)(=O)c4ccc(F)cc4F)c3)cc2c1=O', 'C0', 'µM', 14.2);

###

Experiment: Sprague Dawley (SD) rat absorption test (pharmacokinetics)
Assay type: in vivo, SD rats
Details: male, Sprague-Dawley, rat, plasma, po, 30 mg/kg, male SD rats, single
Procedure: SD rats were given the crystal form A of the compound represented by formula (I) by single or multiple oral gavage and single intravenous injection respectively, with 6 rats in each group, half male and half female. […] According to the drug plasma concentration-time curve, the pharmacokinetic parameters were calculated. […]
VALUE TYPE: AUC(0-t)

INSERT INTO assay_data (sample_smiles, value_type, measurement) VALUES
  ('CNC(=O)[C@H](C)Cn1cnc2ccc(-c3cnc(OC)c(NS(=O)(=O)c4ccc(F)cc4F)c3)cc2c1=O', 'AUC(0-t)', '45.3 µM·h');
